The measurements presented in this section are drawn from paper PMC5869772.

Molecular target: BATF3;JUNB (human;human, UniProt Q9NR55;P17275 1-127;148-347, |)
Sequence 1: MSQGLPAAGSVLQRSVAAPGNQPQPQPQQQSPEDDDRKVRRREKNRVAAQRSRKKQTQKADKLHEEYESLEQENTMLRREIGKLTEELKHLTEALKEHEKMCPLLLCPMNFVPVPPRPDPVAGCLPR
Sequence 2: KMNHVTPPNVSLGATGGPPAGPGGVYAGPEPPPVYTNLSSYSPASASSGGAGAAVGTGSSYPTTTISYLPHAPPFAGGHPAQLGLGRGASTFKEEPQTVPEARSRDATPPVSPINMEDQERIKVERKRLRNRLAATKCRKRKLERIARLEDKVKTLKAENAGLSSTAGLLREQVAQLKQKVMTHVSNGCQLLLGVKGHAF
Assay: Spec-seq (EMSA and sequencing of bound and unbound bands); 100 nM BATFx-JUNB, 1 uM dsDNA library, 50 mM K acetate, 20 mM Tris-acetate, 10 mM Mg acetate, 100 ug/ml BSA, pH 7.9, 10% glycerol, 30 min on ice; native 9% PAGE at 4 C; low values mean tight binding
Conditions: protein: recombinant;recombinant; tags: N-terminal mCherry-TEV, cleaved off;C-terminal 6His; copies: 1;1; dsDNA, one strand shown
Please use true whenever binding signal is not below -0.09 kT, and false whenever it is.

State whether the measured binding signal reaches -0.09 kT, counting equality as reaching it, for GATAGTCTCATTTTCACCCCGTGAAAGTGGGTCATTGTTCCATTACAGTATCTGT
true

State whether the measured binding signal reaches -0.09 kT, counting equality as reaching it, for GATAGTCTCATTTTCACCCCGTGAAATGAATCATTTGTTCCATTACAGTATCTGT
false

State whether the measured binding signal reaches -0.09 kT, counting equality as reaching it, for GATAGTCTCATTTTCACCCCGTGAAATGACTCGTTTGTTCCATTACAGTATCTGT
true

Next:
State whether the measured binding signal reaches -0.09 kT, counting equality as reaching it, for GATAGTCTCATTTTCACCCCGTGAAATGGCGTCATTGTTCCATTACAGTATCTGT
false

State whether the measured binding signal reaches -0.09 kT, counting equality as reaching it, for GATAGTCTCATTTTCACCCCGTGAAATCACTCATTTGTTCCATTACAGTATCTGT
false

State whether the measured binding signal reaches -0.09 kT, counting equality as reaching it, for GATAGTCTCATTTTCACCCCGTGAAAATGGGTCATTGTTCCATTACAGTATCTGT
true

State whether the measured binding signal reaches -0.09 kT, counting equality as reaching it, for GATAGTCTCATTTTCACCCCGTGAAATGAGGCAATTGTTCCATTACAGTATCTGT
true

State whether the measured binding signal reaches -0.09 kT, counting equality as reaching it, for GATAGTCTCATTTTCACCCCGTGAAATGAGTCTGTTGTTCCATTACAGTATCTGT
true

State whether the measured binding signal reaches -0.09 kT, counting equality as reaching it, for GATAGTCTCATTTTCACCCCGTGAAATGATGTCATTGTTCCATTACAGTATCTGT
false

State whether the measured binding signal reaches -0.09 kT, counting equality as reaching it, for GATAGTCTCATTTTCACCCCGTGAAATGAGTGAGTTGTTCCATTACAGTATCTGT
true

State whether the measured binding signal reaches -0.09 kT, counting equality as reaching it, for GATAGTCTCATTTTCACCCCGTGAAACAGAGTCATTGTTCCATTACAGTATCTGT
true

State whether the measured binding signal reaches -0.09 kT, counting equality as reaching it, for GATAGTCTCATTTTCACCCCGTGAAATGAGTGACTTGTTCCATTACAGTATCTGT
true
